Quick list: self-cleavage per entry.
B1: Twister Ribozyme (parent)
chain: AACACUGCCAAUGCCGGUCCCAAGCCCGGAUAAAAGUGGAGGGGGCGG

# Variants of: B1
# protocol notes: self-cleavage, relative activity (ratio to wild type); higher = more cleavage; co-transcriptional
Kindly provide the number alone.

The variant C9A A23C showed self-cleavage equal to 0.0979

The variant C21G G29C showed self-cleavage equal to 0.123

The variant A4C G43A showed self-cleavage equal to 0.0357

The variant C15G G43U showed self-cleavage equal to 0.104

The variant C19U U31A showed self-cleavage equal to 0.682

The variant G17A A35G showed self-cleavage equal to 0.262

The variant C5G A40C showed self-cleavage equal to 0.198

The variant G39C A40U showed self-cleavage equal to 0.165
